# measured-target: beta-catenin (Homo sapiens)
# Construct: made in house; host or cells: E. coli BL21 (DE3) pLysS
# Sequence (P35222 134-665): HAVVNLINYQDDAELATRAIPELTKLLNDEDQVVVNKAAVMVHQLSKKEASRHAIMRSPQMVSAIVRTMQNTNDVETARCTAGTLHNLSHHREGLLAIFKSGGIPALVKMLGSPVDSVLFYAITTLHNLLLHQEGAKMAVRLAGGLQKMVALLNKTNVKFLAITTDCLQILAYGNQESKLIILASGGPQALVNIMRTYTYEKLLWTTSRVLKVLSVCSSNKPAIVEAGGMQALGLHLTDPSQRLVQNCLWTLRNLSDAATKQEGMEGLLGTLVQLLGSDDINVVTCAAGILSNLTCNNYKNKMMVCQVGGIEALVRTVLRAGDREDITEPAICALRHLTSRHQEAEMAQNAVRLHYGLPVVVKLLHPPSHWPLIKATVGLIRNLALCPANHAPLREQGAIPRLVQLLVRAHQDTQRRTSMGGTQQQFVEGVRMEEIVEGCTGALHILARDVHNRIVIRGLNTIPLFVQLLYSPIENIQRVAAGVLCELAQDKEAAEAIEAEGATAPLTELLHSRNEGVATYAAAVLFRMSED
# assay-method-text: Phage Library Screening with NGS, beta-catenin
# Format: binding
# experimental-setup: beta-catenin target concentration 30; no competitor
recorded-metric: Target Concentration 30 (phage screen NGS readout)

{"sequence-text": "DPARMTCYEAAFRCQYY", "result-number": 2}
{"sequence-text": "DPAEADCMMAAHICSNI", "result-number": 0}

(I) DPAILTCYEAAFTCQYQ
(II) DPAWILCDWAAMHCELV
Response body: label of entry with the larger Target Concentration 30 (phage screen NGS readout); valid values I , II . # reply format: chosen label
I

* * *

# measured-target: RNF31 UBA domain (Homo sapiens)
# Construct: RNF31 UBA domain protein (residues 480-639) with N-terminal Thioredoxin-TEV-6×his-yBBr-3C tags; Thioredoxin (N, cleaved yes); made in house; host or cells: E. coli BL21 (DE3) pLysS
# Sequence (Q96EP0 480-639): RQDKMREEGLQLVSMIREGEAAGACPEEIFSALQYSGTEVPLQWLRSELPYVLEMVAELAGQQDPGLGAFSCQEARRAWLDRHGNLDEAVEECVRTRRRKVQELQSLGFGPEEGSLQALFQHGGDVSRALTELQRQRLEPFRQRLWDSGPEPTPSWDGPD
# assay-method-text: Phage Library Screening with NGS, RNF31 UBA domain
# Format: binding
# experimental-setup: Target Concentration 100; no competitor
recorded-metric: phage screen NGS read-out at Target Concentration 100

{"sequence-text": "DPAFSQCVYAAFFCREI", "result-number": 2}

(A) DPAAFVCEMAANDCLYT
(B) DPAHVHCQAAAQWCVLL
(C) DPASSHCQSAAIWCYLM
(D) DPALSTCVYAAVMCQDV
(E) DPALQHCAAAASWCWLM
Hello, I need these entries ordered by phage screen NGS read-out at Target Concentration 100, highest reading first. Thanks! Please express your ranking as an ordered list of the labels.
C, E, D, B, A
(C: 6, E: 4, D: 2, B: 1, A: 0)

(A) DPAHEHCTSAAAWCMLL
(B) DPAREHCAAAATWCOLL (DPAREHCAAAATWCQLL)
Field: lower recorded phage screen NGS read-out at Target Concentration 100 (choose A or B ) # reply format: chosen label
A
(A: 0, B: 1)

(I) DPADWTCVLAAHNCLYT
(II) DPAFSECVYAATMCLNH
(III) DPAQQICLSAAVFCSIF
(IV) DPAEWLCQMAAHNCIYL
Hello, I need these entries ordered by phage screen NGS read-out at Target Concentration 100, highest reading first. Thanks! Please express your ranking as an ordered list of the labels.
III, IV, II, I
(III: 4, IV: 2, II: 1, I: 0)

(1) DPAQWVCHMAAMNCLYQ
(2) DPAEWICEMAAHNCLYM
Response body: label of entry with the larger phage screen NGS read-out at Target Concentration 100; valid values 1 , 2 . # reply format: chosen label
2
(2: 1, 1: 0)

(I) DPAFYECVYAAVTCTQF
(II) DPAHILCEMAARNCLYN
(III) DPAHHHCQAAAAWCWVM
Rank the items in ascending order with respect to phage screen NGS read-out at Target Concentration 100. Please express your ranking as an ordered list of the labels.
I, II, III
(I: 0, II: 1, III: 4)

(P) DPATLVCTMAANNCIYR
(Q) DPAFSRCVYAAFTCQTF
Field: lower recorded phage screen NGS read-out at Target Concentration 100 (choose P or Q ) # reply format: chosen label
P

(a) DPAFFTCVYAAVTCEMT
(b) DPAEYHCDAAAVWCYLM
Field: lower recorded phage screen NGS read-out at Target Concentration 100 (choose a or b ) # reply format: chosen label
a

(1) DPAFSECVYAAIYCVHS
(2) DPAHEHCTAAASWCYIL
Response body: label of entry with the larger phage screen NGS read-out at Target Concentration 100; valid values 1 , 2 . # reply format: chosen label
2

* * *

# measured-target: beta-catenin (Homo sapiens)
# Construct: made in house; host or cells: E. coli BL21 (DE3) pLysS
# Sequence (P35222 134-665): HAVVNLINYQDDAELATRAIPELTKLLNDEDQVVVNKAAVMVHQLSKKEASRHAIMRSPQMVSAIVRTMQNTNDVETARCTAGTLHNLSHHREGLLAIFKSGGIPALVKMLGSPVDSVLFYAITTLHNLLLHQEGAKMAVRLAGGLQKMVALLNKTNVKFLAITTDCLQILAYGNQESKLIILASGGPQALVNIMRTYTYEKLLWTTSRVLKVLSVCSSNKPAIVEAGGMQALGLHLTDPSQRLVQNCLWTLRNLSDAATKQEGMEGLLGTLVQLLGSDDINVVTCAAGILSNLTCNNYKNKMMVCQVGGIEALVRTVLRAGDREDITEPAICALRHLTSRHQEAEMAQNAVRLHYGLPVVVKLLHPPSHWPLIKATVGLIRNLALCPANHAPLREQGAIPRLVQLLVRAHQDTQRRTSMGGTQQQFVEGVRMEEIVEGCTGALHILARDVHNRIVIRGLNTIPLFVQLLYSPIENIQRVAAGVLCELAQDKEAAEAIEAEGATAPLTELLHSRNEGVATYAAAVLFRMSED
# assay-method-text: Phage Library Screening with NGS, beta-catenin
# Format: binding
# experimental-setup: beta-catenin target concentration 30; no competitor
recorded-metric: Target Concentration 30 (phage screen NGS readout)

The examples below pair each entry with its known result.
{"sequence-text": "DPAHWVCEHAALNCDQN", "result-number": 2}
{"sequence-text": "DPAILECYEAAFECQYM", "result-number": 8}
{"sequence-text": "DPAHLMCHYAAWDCRDE", "result-number": 0}
{"sequence-text": "DPAEWQCEHAALLCEQQ", "result-number": 201}
{"sequence-text": "DPAILDCQLAAIDCVYT", "result-number": 21}
{"sequence-text": "DPAALSCYQAAFHCQYY", "result-number": 0}
{"sequence-text": "DPAMSQCNWAAVHCQLL", "result-number": 6}
{"sequence-text": "DPAVEDCVLAAHVCAWF", "result-number": 2}

(1) DPAMIQCQWAAEHCELI
(2) DPAVQDCEWAAIYCELI
Field: lower recorded Target Concentration 30 (phage screen NGS readout) (choose 1 or 2 ) # reply format: chosen label
1
(1: 0, 2: 9)

(a) DPAVMACYEAAFQCAYW
(b) DPAHWSCEWAAEHCRLI
(c) DPAADDCVLAAHVCAYF
(d) DPASWRCEHAALNCQID
(e) DPAVDECIIAAHICHIW
Rank the items in ascending order with respect to Target Concentration 30 (phage screen NGS readout). Please express your ranking as an ordered list of the labels.
a, b, e, d, c
(a: 0, b: 1, e: 4, d: 6, c: 46)

(a) DPAQQDCTLAAHVCRVF
(b) DPAQSDCDWAAEHCNLI
Response body: label of entry with the larger Target Concentration 30 (phage screen NGS readout); valid values a , b . # reply format: chosen label
b

(1) DPALWNCDHAALLCDHQ
(2) DPAEFYCEMAAVHCELL
Field: lower recorded Target Concentration 30 (phage screen NGS readout) (choose 1 or 2 ) # reply format: chosen label
1

* * *

# measured-target: WWP1 (Homo sapiens)
# Construct: GST-TEV (N, cleaved yes); made in house; host or cells: Escherichia coli BL21 (DE3)
# assay-method-text: Naive Library Presenter Screening (phage, NGS), WWP1 (construct not given)
# Type: binding
# experimental-setup: WWP1 target concentration 30 nM
Numbered stars: 1 amine (or outer) side, 2 acyl side, 3 side chain; on linkers, the order of the positions; unused ones are H or OH. Bridge positions count the residues as written; N and C are the ends. Ends that are not written are not given here. Phenylene(1,4-NHCOCH2)2 = O=C(C[*:1])Nc1ccc(NC(=O)C[*:2])cc1
Reported interaction data at Target Concentration 30 values for the following sequences.
Keep the answer to the number alone.

{"sequence-text": "DPAIIRCTSAAMMCHNT (linker 7-14 via Phenylene(1,4-NHCOCH2)2)", "measured-target": "WWP1 (Homo sapiens)", "result-number": 4}
{"sequence-text": "DPARWACTEAAHVCDTL (linker 7-14 via Phenylene(1,4-NHCOCH2)2)", "measured-target": "WWP1 (Homo sapiens)", "result-number": 2}
{"sequence-text": "DPAQQTCSQAAWVCSIL (linker 7-14 via Phenylene(1,4-NHCOCH2)2; not fully specified (C-terminus))", "measured-target": "WWP1 (Homo sapiens)", "result-number": 55}
{"sequence-text": "DPAWVSCVRAANLCHVS (linker 7-14 via Phenylene(1,4-NHCOCH2)2 (inferred); not fully specified (C-terminus))", "measured-target": "WWP1 (Homo sapiens)", "result-number": 1}
{"sequence-text": "DPARLDCTAAAYVCSVL (linker 7-14 via Phenylene(1,4-NHCOCH2)2)", "measured-target": "WWP1 (Homo sapiens)", "result-number": 0}

For DPALASCQQAAWVCEVL (linker 7-14 via Phenylene(1,4-NHCOCH2)2) , what is its reported interaction data at Target Concentration 30?
43

For DPAVRDCSDAAIVCELV (linker 7-14 via Phenylene(1,4-NHCOCH2)2) , what is its reported interaction data at Target Concentration 30?
5

For DPATETCAQAAVLCHSD (linker 7-14 via Phenylene(1,4-NHCOCH2)2 (inferred); not fully specified (C-terminus)) , what is its reported interaction data at Target Concentration 30?
12

For DPATMNCTLAANICHSH (linker 7-14 via Phenylene(1,4-NHCOCH2)2 (inferred); not fully specified (C-terminus)) , what is its reported interaction data at Target Concentration 30?
0

For DPAIMSCMYAAEVCRVL (linker 7-14 via Phenylene(1,4-NHCOCH2)2) , what is its reported interaction data at Target Concentration 30?
1

For DPAFIQCTHAANMCHSS (linker 7-14 via Phenylene(1,4-NHCOCH2)2) , what is its reported interaction data at Target Concentration 30?
3
